test: Evaluation of moisture resistance (image-recorded paper at 40° C. and humidity 85%, visual observation); type: physicochemical; conditions: image-recorded paper at 40° C. and humidity 85%, visually observed
attribute-measured: (B) moisture resistance

Examples with answers:
molecule: CCCCc1c(N=Nc2cc(C(=O)O)ccc2C(=O)O)c(O)n(CCNC(=O)c2cc(C(=O)O)c(C(=O)NCCn3c(O)c(N=Nc4cc(C(=O)O)ccc4C(=O)O)c(CCCC)c(C#N)c3=O)cc2C(=O)O)c(=O)c1C#N [Compound 284]
(B) moisture resistance: ⊚

molecule: Cc1c(N=Nc2cc(C(=O)O)ccc2C(=O)O)c(O)[nH]c(=O)c1C#N [Compound No. 11]
(B) moisture resistance: ◯

molecule: Cc1c(N=Nc2cc(C(=O)O)ccc2C(=O)O)c(O)n(CCCNc2nc(NCCn3c(O)c(N=Nc4cc(C(=O)O)ccc4C(=O)O)c(C)c(C#N)c3=O)nc(NCCn3c(O)c(N=Nc4c(C(=O)O)cccc4C(=O)O)c(C)c(C#N)c3=O)n2)c(=O)c1C#N [Compound 274]
(B) moisture resistance: ⊚

molecule: Cc1c(N=Nc2c(C(=O)O)cccc2C(=O)O)c(O)n(C(O)CO)c(=O)c1C#N (centres unmarked) [compound 43]
(B) moisture resistance: Δ

molecule: Cc1c(C(=O)O)ccc(C(=O)O)c1N=Nc1c(C)c(C#N)c(=O)n(CCCS(=O)(=O)O)c1O [compound 137]
(B) moisture resistance: Δ

[in] Given Cc1c(N=Nc2cc(C(=O)O)ccc2C(=O)O)c(O)n(CCNc2nc(NCCn3c(O)c(N=Nc4cc(C(=O)O)ccc4C(=O)O)c(C)c(C#N)c3=O)nc(SCCC(=O)O)n2)c(=O)c1C#N [Compound 321] , state its recorded (B) moisture resistance.
[out] ⊚

[in] Dear colleague, I am looking for the recorded (B) moisture resistance of the following molecule: Cc1c(N=Nc2cc(C(=O)O)ccc2C(=O)O)c(O)n(CCNC(=O)c2ccc(C(=O)NCCn3c(O)c(N=Nc4cc(C(=O)O)ccc4C(=O)O)c(C)c(C#N)c3=O)c(C(=O)NCCn3c(O)c(N=Nc4cc(C(=O)O)ccc4C(=O)O)c(C)c(C#N)c3=O)c2)c(=O)c1C#N [Compound 305]
[out] ⊚

[in] What value of (B) moisture resistance has been recorded for this entry: Cc1c(N=Nc2cc(C(=O)O)ccc2C(=O)O)c(O)n(CC(=O)O)c(=O)c1C#N [compound 77]
[out] Δ

[in] Suppose we examine the molecule Cc1c(C(=O)O)ccc(C(=O)O)c1N=Nc1c(O)[nH]c(=O)c(C#N)c1C [Compound No. 24] ; what (B) moisture resistance value has been reported?
[out] ◯

[in] Value lookup for (B) moisture resistance; key = Cc1c(N=Nc2cc(C(=O)O)ccc2C(=O)O)c(O)n(CCCNc2nc(Cl)nc(NCCCn3c(O)c(N=Nc4cc(C(=O)O)ccc4C(=O)O)c(C)c(C#N)c3=O)n2)c(=O)c1C#N [Compound 247]
[out] ⊚

[in] Returns the measured (B) moisture resistance for the input molecule. Input: CCOC(=O)Cc1c(N=Nc2cc(C(=O)O)ccc2C(=O)O)c(O)n(CCNc2nc(Cl)nc(NCCn3c(O)c(N=Nc4cc(C(=O)O)ccc4C(=O)O)c(CC(=O)OCC)c(C#N)c3=O)n2)c(=O)c1C#N [Compound 255]
[out] ⊚

[in] Requested field: (B) moisture resistance. Item: Cc1c(N=Nc2cc(C(=O)O)ccc2C(=O)O)c(O)n(CCNc2nc(NCCn3c(O)c(N=Nc4cc(C(=O)O)ccc4C(=O)O)c(C)c(C#N)c3=O)nc(NCCn3c(O)c(N=Nc4cc(C(=O)O)ccc4C(=O)O)c(C)c(C#N)c3=O)n2)c(=O)c1C#N [Compound 262]
[out] ⊚
